Biological target: T1, FLAG-tagged human APRIL (human, UniProt O75888 105-250, limits assumed)
T1 construct: also called FLAG-tagged APRIL; FLAG-APRIL; not shown: FLAG tag
T1 sequence (looked up): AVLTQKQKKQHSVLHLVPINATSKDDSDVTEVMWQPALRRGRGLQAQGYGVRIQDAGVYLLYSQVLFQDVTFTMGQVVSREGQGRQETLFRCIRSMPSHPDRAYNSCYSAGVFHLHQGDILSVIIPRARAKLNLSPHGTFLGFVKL
Assay: ELISA: FLAG-tagged human APRIL captured on anti-FLAG plate, purified antibody titrated
observed-property: EC50 (nM)

binder | recorded-value
VH14_1E.VL15 (antibody, human IgG4, V domains shown, VH14_1 with Q1E; Rest is human IgG4 (S241P, Kabat) and human kappa; also called 14_1E.15) VH: EVQLVQSGAEVKKPGASVKVSCKASGYTFTSYVMHWVRQAPGQGLEWMGYINPYNDAPKYNEKFKGRVTMTSDTSASTAYMELSSLRSDDTAVYYCARGLGYALYYAMDYWGQGTTVTVSS VL: DIVMTQSPSTLSASVGDRVTITCKASQNVGNNVAWYQQKPGKAPKLLISSASNRDSGVPSRFSGSGSGTEFTLTISSLQPDDFATYFCQQYNIYPFTFGQGTKLEIK | 2.67
